Target: acetylcholine receptor
Experiment: SPR, acetylcholine receptor on CM5 chip, peptide at 10 uM
# Binding affinity (RU) per entry
Give your result in RU as a bare value.

BINDER | OUTPUT_UNIT | Binding affinity (RU)
KRGLYK [6mer-1-581] | RU | 139
KRVICK [6mer-1-586] | RU | 136
KKQYQR [6mer-1-577] | RU | 128
KRSIRR [6mer-1-565] | RU | 151
RRVILK [6mer-1-535] | RU | 139
KKVLYK [6mer-1-583] | RU | 139
RRLICR [6mer-1-550] | RU | 148
KRVLLK [6mer-1-572] | RU | 126
KRVQTR [6mer-1-540] | RU | 128

Input: I'd like to know its Binding affinity (RU). The binder in question is KKWYLK [6mer-1-555]
Output: 128

Each recorded value in this set is attributed to patent US20250011363A1.
